system: MS2 coat protein; assay: apparent KD of MS2 coat protein; designed switch direction (-1 OFF switch, 1 ON switch): -1; higher = weaker reporter binding; conditions: Eterna round: R95; input ligand: FMN 200 uM
Measured apparent KD of MS2 coat protein, listed per entry for reference.
Output spec: scalar in nM, unitless text.

The cases that follow already have their apparent KD of MS2 coat protein on record.
AGAUGUAGAUACCGAUCCUACAUGAGGAUCACCCAUGUAGCUAGACGUGCACGCGAAGCUCGUCAGACUACCAGAAG [salish99_TOv1_r3_084] (puzzle: Sensor v3, turn-off variant 1) :: 172
GCGAAAGCAAGCAAGUGAAACAUGAGGAUCACCCAUGUCCUCAUUUGCUCGUCUUAUAAAAGCUAUCGAAAGAUAGC [Sensor 3, v1 - 1] (puzzle: Sensor v3, turn-off variant 1) :: 11.6
UCGUGGUAAAUCAGGUGAUGUCUGAUAGGAUGGACUUUGACAUGAGGAUCACCCAUGUUGCUUUUUGCCCGUCUUAA [JR_SV3TOV2_Sub044] (puzzle: Sensor v3, turn-off variant 2) :: 16.1

Query block: Return the recorded apparent KD of MS2 coat protein value; entry: AGGGAUAAAGGAUAUACAUGAGGAUCACCCAUGUUGAGGAAAGUUAGAUGAGGAGGAAGUAGAAGGUUAGGCGA [JR_Exclu3_Sub086] (puzzle: Exclusion 3)
Result block: 31.1

Query block: Return the recorded apparent KD of MS2 coat protein value; entry: AGUAGUAGUAUCCGAUCUUACAUGAGGAUCACCCAUGUAGCUAGACGUGCACGCGAUGCUCGUCAGACUACCAGAUG [salish99_TOv1_r3_051] (puzzle: Sensor v3, turn-off variant 1)
Result block: 148

* * *

tested on: MS2 coat protein; experiment: apparent KD of MS2 coat protein; designed switch direction (-1 OFF switch, 1 ON switch): -1; higher = weaker reporter binding; conditions: input ligand: FMN 200 uM
Decide using apparent KD of MS2 coat protein: a value greater than or equal to 200 nM is criterion met, a smaller one is criterion not met.

UUAAUUAAUAAUUAAGAUCAUUACAUGAGGAUCACCCAUGUCGAGGAUAUCAGCUCGUGUAGAGCUGAGAAGGCGACAAAUUAU [ExNG3/13-B3] (Eterna round: R96, puzzle: Exclusion NG 3) :: criterion met
AGUCGAAAGAUCCACAUGGACAUGAGGAUCACCCAUGUGCAAGCCUUUUUCUCGUCACUAUCGUCAAAAGACGAUAG [Omei Mir Offv1 A6] (Eterna round: R97, puzzle: Sensor, turn-off variant 1) :: criterion not met
CACCGUUAACUAGGAUAUCGUACAUGAGGAUCACCCAUGUAAUAAAUGAGAAUUUCGGAUGUAUGCGAGAAGGAGUAAAUCGGC [Ostricism 46 - Jieux - Exclusion NG 2] (Eterna round: R96, puzzle: Exclusion NG 2) :: criterion not met
AGUGCUGCAGGAUAUUCUAUUAAUUACAUGAGGAUCACCCAUGUGAAUGGACAAGGGUGUGAAGAAGGGUGGUACG [Omei Ex5 A17i] (Eterna round: R97, puzzle: Exclusion 5) :: criterion met

Okay, now this sequence:
Query block: Hi, just wondering whether UUUUUAGAUGAAGGAUAUACUUAACAUGAGGAUCACCCAUGUGGUGUUGUGAGUGAGUGAGUUUAGUAGAAGGUCAAUUAUUUU [JMF's solution 21] (Eterna round: R96, puzzle: Exclusion NG 2) shows apparent KD of MS2 coat protein of 200 nM or higher.
Result block: criterion not met

* * *

Measured apparent KD of K4 kissing-loop reporter, listed per entry for reference.
system: K4 kissing-loop RNA reporter; experiment: apparent KD of K4 kissing-loop reporter; higher = weaker reporter binding; details: Eterna round: R107; input ligand: none
Output spec: scalar in nM, unitless text.

UUAAUAUUGUCGGCCGCCACUGGAUAGUAAUUUGUAUAAUCUAUUUCAAAGUGAUGUUUUGAGUCCAGGACCGGGACAUUUGAUA [JR_Nu_ExcTryptoB_Sub030] :: 455
AGCAGUCACUCGAAAACCAUCGAAGAUGGACGAGGACCGGUACGGCCGCCACUCGGAGUGAUGUUCCGAAGACUGCAAAAUAAAA [#SwitchBubble 16] :: 433
CUCUUCUUUCUUUUAGUGAUGUUAAAUUAGCGAGGACCGGUACGGCCGCCACUCGUAUAGCUGGAAUGACUGUGCGAGGGUUUGU :: 905

Query block: Return the recorded apparent KD of K4 kissing-loop reporter value; entry: GGCAGUGAUGUUGCCUUCGCAAUGCAUGCAGAGGAUAUUCGUUUGGGAAGAAGGCUGCAGCGUUCUCUCGAGUGAUGUUCGGGUG [Same State FMN A GF 19]
Result block: 195

Query block: Return the recorded apparent KD of K4 kissing-loop reporter value; entry: AGACUUCACCGAAGGAGCGACGUAGCCUAGUGAUGUUAGGCAAGAGAGAAAUCUCUUAUACGUCAGGUAGGUCGCGGUGAAGUCA [Omei KL Arginine B SS C v2]
Result block: 162

* * *

system: MS2 coat protein; assay: apparent KD of MS2 coat protein; designed switch direction (-1 OFF switch, 1 ON switch): -1; higher = weaker reporter binding; conditions: input ligand: none
Measured apparent KD of MS2 coat protein, listed per entry for reference.
Output spec: scalar in nM, unitless text.

CUGUACUGAGGAUAUACAUGAGGAUCACCCAUGUUCUUCGGCUAGGAAACUAGCAAAGGUAGAAGGCAGUACAG [Mat - Exclusion 3 - Eli Mod - D68] (Eterna round: R97, puzzle: Exclusion 3) :: 15.1
GGCGUCGUGUAGGAUAUGAAUUGAAAGGCUUCGUCAGAAGGGCACACAUGAGGAUCACCCAUGUGACAGCUGAG [Eternabot (L1) Solution 78] (Eterna round: R97, puzzle: Exclusion 6) :: 19.9

API: the following record is the query input.
Query block: Return the recorded apparent KD of MS2 coat protein value; entry: AACUGGCGAGGAUAUACUUGGCAUAUAGCCUAAUUUCGGCUACUUGAGGAUCACCCAAGUAGAAGGUGCACGGC [Anlaxebe] (Eterna round: R97, puzzle: Exclusion 2)
Result block: 15.1

* * *

Measured apparent KD of MS2 coat protein, listed per entry for reference.
tested on: MS2 coat protein; test: apparent KD of MS2 coat protein; higher = weaker reporter binding; details: Eterna round: R107; input ligand: none
Output spec: scalar in nM, unitless text.

The cases that follow already have their apparent KD of MS2 coat protein on record.
GGAUAGGACAGAAGGAGCGACAUGGCGACGAAAGUCGGACCUUCACAUGAGGAUCACCCAUGUCAGGUAGGUCGCUGUCCUAUCG [ArgXB 6 #MS2Gate #StaticStem] :: 48.4
AGAGUCAGACAAAAGUCUGGCUCAACCGAAGGAGCGUCCGAAAGGACAGGUAGGUCGCGGUUACCUGAGGAUCACCCGGGUUCCU [ArgAS 9 #OpenEnded #AlternativeMS2] :: 65

API: the following record is the query input.
Query block: Return the recorded apparent KD of MS2 coat protein value; entry: UUCGUUUGCGGAAGGAGCGACGGACAUCGGUGAACGACGCACAUGAGGAUCACCCAUGUACGUCAGGUAGGUCGCCGCUAAGAGU [Tibira]
Result block: 18

* * *

Measured apparent KD of K4 kissing-loop reporter, listed per entry for reference.
system: K4 kissing-loop RNA reporter; assay: apparent KD of K4 kissing-loop reporter; higher = weaker reporter binding; settings: Eterna round: R107; input ligand: FMN 200 uM
Output spec: scalar in nM, unitless text.

The cases that follow already have their apparent KD of K4 kissing-loop reporter on record.
UGACUGGACUGAAGGAGCGAGCGAGACAAAGUCUCGAAAAUUCAGUGAUGUUGAUAUAUAACUCAGGUAGGUCGCAGUCUAGUCU [ArgBS 5 #SwitchBubble #StaticStem] :: 447
AGAGAUAUAUGAGGAUAUGAGAUAGUUAAUGAGUGAGUUAUAGUGUAGUUUGGUUAGUGAUGUUAUUUAGAAGGCGUGAGUGAUG [reefmullin] :: 140
CGCGGCCGGCCGGAUACCAGUGACCCGCUGGAAACCGCGGGCCCAGAGUGAUGUUCGGGACACCCUUGGCAGCCGCCUGGGCGUG [#2 Same State - Theophylline B Attempt #2 (HarryS)] :: 547
GUCUGUGUACUAGGAUAUGGUUGCAGGCAGUCAGGUCGCCUUUUCGGCGGCCAGUGAUGUUGGUGGCCAGAAGGAGUACGUGAUG [Raorin] :: 776
CCGUGGAGUGAUGUUCCACGUUCUACGGAUACCAGCUUUGCCAAAGGCCCUUGGCAGCCGCACCUUGCAGUGAUGUUGUGAGGCU [Same State Theophylline A Gf7] :: 329

Query block: GET apparent KD of K4 kissing-loop reporter where system = K4 kissing-loop RNA reporter and item = AGUACAAUGGCGGCCGCCACUCAACGCAGAUCAAAGAUCUGCGAUCACUCAGUGAUGUUGAGUGAGAGGACCGGGCCUUUGUACA [Omei KL Tryp B SS B v6]
Result block: 354

Query block: GET apparent KD of K4 kissing-loop reporter where system = K4 kissing-loop RNA reporter and item = GGACGCCGGUCGGCCGCCACUCACAGCAGUGAUGUUCCUGAGAAUGUAGCGGAGUGAUGUUCCGAGAGGACCGGGACUGCAGUUU [Same State Tryptophan B GF 8]
Result block: 799

Query block: GET apparent KD of K4 kissing-loop reporter where system = K4 kissing-loop RNA reporter and item = "AAGCAGUCACUCGAAUCCAUCGAAGAUGGGCGAGGACCGGUACGGCCGCCACUCGGAGUGAUGUUCCAAAGACUGCAAAAUAAAA"
Result block: 451

Query block: GET apparent KD of K4 kissing-loop reporter where system = K4 kissing-loop RNA reporter and item = UGAUACCAGACGGCCGCCACUACACCAGUCAAAGACUGGAUGUGAUGUCUGACCAGUGAUGUUGGUAGGACCGGGUCUGGUAUCU [TrypBX 6 #Palindromic #SwitchBubble #StaticStem]
Result block: 246

Query block: GET apparent KD of K4 kissing-loop reporter where system = K4 kissing-loop RNA reporter and item = UCAGAGAACGAAGGAUAUUGACCUGUUUUAUGCUAUGAGUGAUGUUCUUAGUAUCAGCGAGAUGAUCAAGAAGGUCGGGUUCGAC [theeternabot_sameState_KL_FMN_B_48]
Result block: 125

Query block: GET apparent KD of K4 kissing-loop reporter where system = K4 kissing-loop RNA reporter and item = CGUUCAUCCUAGGCGUGAGUGAUGUUUACCCGAGGACCGGUACGGCCGCCACUCGUAUGGCGAGAGUUUAGCCAUUUCCAAUAUA [theeternabot_exclusion_KL_Trp_A_17];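 note: bound reporter read as fluorescence of individual clusters on recovered sequencing chips by microscopy, with normalized cluster intensities fitted with a binding model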
Result block: 465

Each recorded value in this set is attributed to the supplement of paper PMC9170038.
